target: C-X-C chemokine receptor type 6 (Homo sapiens, UniProt O00574)
Sequence (O00574 whole entry): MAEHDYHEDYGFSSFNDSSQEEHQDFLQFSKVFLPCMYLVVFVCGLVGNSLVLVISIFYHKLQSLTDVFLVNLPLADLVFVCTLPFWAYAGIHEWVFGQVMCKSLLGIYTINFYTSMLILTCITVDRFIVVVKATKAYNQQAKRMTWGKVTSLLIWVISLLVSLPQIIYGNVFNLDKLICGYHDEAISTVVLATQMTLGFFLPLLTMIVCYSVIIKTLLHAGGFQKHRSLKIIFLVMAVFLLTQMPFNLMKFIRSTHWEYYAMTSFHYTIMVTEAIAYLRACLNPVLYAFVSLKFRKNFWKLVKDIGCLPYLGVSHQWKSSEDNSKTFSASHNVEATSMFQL
pIC50: −log10 of the molar value.
measure: pIC50

Task item: Provide only the value of recorded pIC50 for CC1=CCC[C@H]1NC(=O)Nc1ccc(Cl)c(S(=O)(=O)[C@@]2(C)CCOC2)c1O
Reply: < 5.00

* * *

target: C-C chemokine receptor type 7 (Homo sapiens); experiment: Agonist activity at CCR7 (unknown origin)
Sequence (P32248 whole entry): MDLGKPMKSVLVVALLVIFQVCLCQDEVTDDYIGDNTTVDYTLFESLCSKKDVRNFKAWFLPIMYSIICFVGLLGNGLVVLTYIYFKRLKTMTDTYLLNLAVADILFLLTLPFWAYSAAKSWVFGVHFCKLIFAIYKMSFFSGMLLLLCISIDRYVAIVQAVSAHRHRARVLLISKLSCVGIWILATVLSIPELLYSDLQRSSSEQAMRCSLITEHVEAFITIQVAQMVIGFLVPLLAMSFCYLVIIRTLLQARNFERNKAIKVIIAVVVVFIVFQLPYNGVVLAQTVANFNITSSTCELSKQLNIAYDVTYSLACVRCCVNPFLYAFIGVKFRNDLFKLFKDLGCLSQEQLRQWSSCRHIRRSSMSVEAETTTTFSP
pEC50: −log10 of the molar value.
measure: pEC50

Task item: Provide only the value of recorded pEC50 for CC1=CCC[C@H]1NC(=O)Nc1ccc(Cl)c(S(=O)(=O)[C@@]2(C)CCOC2)c1O
Reply: < 5.00
